test: Cell Viability - H-4-II-E (AID 543); settings: H-4-II-E rat hepatoma viability; series mostly up to 92.2 µM;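 further: cells exposed to compound for 40 hours; nearly all actives have a fitted effect of over 35% in size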
Inconclusive results are not listed. Activity calls are given as the source filed them. The call rests on the fitted dose curve; in most records, active means well fitted cell-killing curve with a large enough effect; inconclusive means small, poorly fitted or top-dose-only effect; inactive means flat fitted curve, though single readings scatter.
Select the correct class. Options are y (active), n (inactive) and nothing else.

Cc1cccc(O)c1C | n
C=CC(=O)OCCOCCOC(=O)C=C | y
CN1[C@H]2CC(OC(=O)[C@H](CO)c3ccccc3)C[C@H]1[C@H]1O[C@H]12 (stereo not given in full) | n
c1ccc2c(c1)ccc1cc3c(ccc4ccccc43)cc12 | n
Oc1ccc2cc(SSc3ccc4cc(O)ccc4c3)ccc2c1 | y
Cc1cc(Nc2ccc(O)cc2)ccc1N | y
CN(C)c1ccc(C2(c3ccc(N(C)C)cc3)OC(=O)c3cc(N(C)C)ccc32)cc1 | n
CCCCCCCC[N+](CCCCCCCC)(CCCCCCCC)CCCCCCCC | y
C/C=C1\C(=O)C[C@H]2[C@@H]3CCC4=CC(=O)CC[C@]4(C)[C@H]3CC[C@]12C | y
CCCCCC/C(C=O)=C\c1ccccc1 | n

Lookup: # lookup: test call for `CC(=O)Nc1ccc(C(=O)CCl)cc1`
Found: y

Lookup: Assay outcome for `O=Cc1ccc(Cl)c(Cl)c1` : what was it?
Found: n

Lookup: What call does the record list for `ClC1=C(Cl)C(Cl)(Cl)C(Cl)=C1Cl` ?
Found: n

Lookup: Kindly provide the recorded test outcome for the following compound: `C=CC(=O)OCC(CO)(COC(=O)C=C)COC(=O)C=C`
Found: y

Lookup: Status in this test for `C=C(C)c1ccccc1` ?
Found: n

* * *

test system: AS120; assay: qHTS profiling for inhibitors of Plasmodium falciparum proliferation (AID 504749); further: nearly all actives have a fitted effect of over 60% in size; further: potency means the concentration at half of the fitted maximal effect; conditions: P. falciparum in erythrocytes, SYBR Green DNA, 72 h; series mostly up to 28.7 µM
Inconclusive results are not listed. The source made the active and inactive calls. The call rests on the fitted dose curve; in most records, active means well fitted inhibition curve with a large enough effect; inconclusive means small, poorly fitted or top-dose-only effect; inactive means flat fitted curve, though single readings scatter.
READOUT KIND: Potency

CC(=O)NC1[C@H]([C@H](O)[C@H](O)CO)OC(C(=O)O)=C[C@H]1N=C(N)N (some centres not stated) | inactive
CNC1CCc2cc(OC)c(OC)c(OC)c2-c2ccc(OC)c(=O)cc21 (configuration not stated) | inactive
CCOc1ccccc1O[C@@H](c1ccccc1)[C@@H]1CNCCO1 | 11.2 µM (active)
C=C(CC[C@@H](C)[C@H]1CCC2[C@]1(C)CC[C@]13C[C@@]14CCC(OC(=O)/C=C/c1ccc(O)c(OC)c1)C(C)(C)[C@@H]4CC[C@@]23C)C(C)C (some centres not stated) | inactive

Lookup: For AS120, give Potency of the listed compound: C[C@]12CC[C@@H]3c4ccc(O)cc4CC[C@H]3[C@@H]1C[C@H](O)C2O (some centres not stated)
Found: inactive

* * *

assay: NFAT Signaling Pathway (AID 444); conditions: Jurkat NFAT-bla M1, carbachol, beta-lactamase ratio, 5 h; at 17.2 µM (top of the series) unless noted;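 further: carbachol stimulus at about its EC50 of 1 µM final; on the % scale 0 is the no-effect control and ±100 the full control effect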
Results filed as inconclusive are left out. Active and inactive are the calls of the source. Calls come from the whole dose curve; as a rule, active = well fitted curve in either direction with a large enough effect (not every such curve was filed as active); inconclusive = small, poorly fitted or top-dose-only effect, or another doubt; inactive = flat fitted curve, though single readings scatter.
Would you mind answering with one of these outcomes? active, inactive

CCOC(=O)Oc1ccc2c(c1)C(C)=CC(C)(C)N2C(=O)OCC | inactive
COC(=O)C(NC(=O)c1ccc(F)cc1)(Nc1nc(C)cs1)C(F)(F)F (stereo not drawn) | inactive
CC1(C)Cc2c(sc3c4nnnn4c4nnnn4c23)CO1 | active

Lookup: Called result for COC(=O)C1=C(N)Oc2cc(C)oc(=O)c2C1c1ccncc1 (stereo not drawn)
Found: inactive

Lookup: // param item: `CSc1nc(N)nc(SCC(=O)OC(C)C)c1C#N` ; yields the recorded call
Found: inactive

* * *

We begin with a simple list: items and their reported activation.
assay: qHTS Assay for Identification of Small Molecule Agonists for Hypoxia Response Element Signaling Pathway (AID 914); details: ME-180 HRE-bla reporter, beta-lactamase ratio, CoCl2, 17 h; hits give high values; further: % of control where 0% means no effect
Inconclusive results are not listed.
Respond numerically; units are % and should not be typed.

Solved cases below.
CCCC(CCC(=O)Nc1ccc(C(=O)OCC)cc1)C(=O)O (stereo not drawn) | 10
COc1ccc(CCCNC(=O)CC#N)cc1OC | 5.59
CCOC(=O)c1c(N)sc2c1CCC1C(=O)N(C3CCCCC3)C(=O)C21 (stereo not drawn) | -6.89
COc1ccc(C(=O)OC(C)CN2CCN(C)CC2)cc1OC (stereo not drawn) | 7.74
Cc1nc(Sc2cccn2C)c(C(F)(F)F)c(=O)[nH]1 | 6.77
c1ccc2c(c1)NC(c1ccncc1)n1c-2nc2ccccc21 (stereo not drawn) | 15.3

Lookup: Give reported activation value for COc1ccc(NC(=O)CSC2=C(C#N)C(c3ccco3)C3=C(CCCC3=O)N2)c(OC)c1 (stereo not drawn)
Found: -27.4

Lookup: Supply recorded activation for `CC(C)(C)NCc1cc2ccccc2[nH]c1=O` here.
Found: -14.6

Lookup: Supply reported activation belonging to this molecule: `Cc1cc(=O)oc(C)c1C(=O)Nc1cccc2nonc12`
Found: 1.4

Lookup: Find the measured activation of `CC(C)c1nc(N2CCOCC2)c(C#N)c2c1COC(C)(C)C2` and report it.
Found: -24.7

* * *

experiment: AP1 Signaling Pathway (AID 357); details: ME-180 (cervical carcinoma) AP-1-bla reporter, EGF-induced, beta-lactamase ratio, 5 h; at 17.2 µM (top of the series) unless noted;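 further: ME-180 reporter cells stimulated with EGF at its EC50 level; on the % scale 0 is the no-effect control and ±100 the full control effect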
Records with an inconclusive call do not appear. Active and inactive are the calls of the source. Calls come from the whole dose curve; as a rule, active = well fitted curve in either direction with a large enough effect (not every such curve was filed as active); inconclusive = small, poorly fitted or top-dose-only effect, or another doubt; inactive = flat fitted curve, though single readings scatter.
Let's look at some compounds and their measured activity change, negative = inhibition.

Some solved entries appear below for comparison.
CCOC(=O)c1[nH]c2ccccc2c1N=CN(CC)CC | 9.2% (inactive)
CC1(C)Cc2c(c(N3CCOCC3)nc3sc4c(=O)[nH]cnc4c23)CS1 | 4.29% (inactive)
COc1ccc(/C(O)=C2/C(=O)C(=O)N(CCN3CCOCC3)C2c2ccccn2)cc1OC (configuration not stated) | 3.25% (inactive)
CCC1(C)Cc2c(sc3c2c(=O)n(C)c2nnc(SCc4ccccc4)n32)CO1 (configuration not stated) | -2.66% (inactive)
CCCCOC(=O)C(C)c1c(C)[nH]c(=S)[nH]c1=O (configuration not stated) | 7.17% (inactive)
COc1ccc(/C(O)=C2\C(=O)C(=O)N(CCN(C)C)C2c2cccc(OC)c2OC)cc1 (configuration not stated) | 10.8% (inactive)
Oc1c(C=NCc2ccncc2)sc2ccccc12 | -15.7% (inactive)
CCOC(=O)NC(Nc1cc(C)on1)(C(F)(F)F)C(F)(F)F | 20.3% (inactive)
Cc1nc2c(=O)n(C)c(=O)[nH]c2n1Cc1ccccc1 | 10.3% (inactive)
Cc1noc(NS(=O)(=O)c2ccc(NC(=O)COc3ccccc3)cc2)c1C | 2.17% (inactive)

Lookup: Fill in reported activity change, negative = inhibition for this entry: `O=C(Cc1ccc(Cl)cc1)Nc1cccc(-c2nnc(-c3ccco3)o2)c1`
Found: -5.69% (inactive)

Lookup: Consider the compound COc1cccc(C2=CC(c3ccc(N(C)C)cc3)n3nnnc3N2)c1 (configuration not stated) and give its recorded activity change, negative = inhibition.
Found: -12.2% (inactive)

Lookup: # return recorded activity change, negative = inhibition for entry `COc1cccc2c1[C@@H]1CN(CCCCn3c(=O)[nH]c4c(sc5ncc(-c6ccccc6)nc54)c3=O)C[C@H]1CO2`
Found: 4.55% [at 38 µM] (inactive)

* * *

tested on: FAB9; test: qHTS profiling for inhibitors of Plasmodium falciparum proliferation (AID 504749); further: nearly all actives have a fitted effect of over 60% in size; further: potency means the concentration at half of the fitted maximal effect; details: P. falciparum in erythrocytes, SYBR Green DNA, 72 h; series mostly up to 28.7 µM
Inconclusive results are not listed. Calls of active or inactive are those of the source. The call rests on the fitted dose curve; in most records, active means well fitted inhibition curve with a large enough effect; inconclusive means small, poorly fitted or top-dose-only effect; inactive means flat fitted curve, though single readings scatter.
READOUT KIND: Potency

C[n+]1c2cc(N)ccc2cc2ccc(N)cc21 | 199 nM (active)
O=C(O)C[CH2][Ge](=[O])[O][Ge](=[O])[CH2]CC(=O)O | inactive
CCCCCOC(=O)Nc1nc(=O)n(C2O[C@H](C)[C@@H](O)[C@@H]2O)cc1F (stereo partly specified) | inactive
CNC1C(O)C(OC2C(NC(=O)C(O)CN)CC(N)C(OC3OC(CN)C(O)C(O)C3O)C2O)OCC1(C)O (stereo unspecified) | inactive

Lookup: Respond only with Potency recorded for `CC1(C)C2CC[C@]1(C)[C@@H](O)C2`
Found: inactive

Lookup: Please supply the value of reported Potency for the item `Cc1cncc(C(=O)O)[n+]1[O-]`
Found: inactive

Lookup: Supply Potency value. Item: `C#C[C@]1(O)CC[C@H]2[C@H]3[C@H](CC[C@@]21C)C1=C(CC(=O)CC1)C[C@@H]3C`
Found: inactive

Lookup: Provide only the value of recorded Potency for CNC1C(O)C(OC2C(N)CC(N)C(OC3OC(CN)=CCC3N)C2O)OCC1(C)O (stereo unspecified)
Found: inactive

Lookup: # return recorded Potency for entry CC1CN(c2c(F)c(N)c3c(=O)c(C(=O)O)cn(C4CC4)c3c2F)CC(C)N1 (stereo unspecified)
Found: inactive

Lookup: Check the records and state Potency for CC(=O)N[C@H]1[C@H](O[C@@H]2c3ccc(c(Cl)c3)Oc3cc4cc(c3O[C@@H]3O[C@H](CO)[C@@H](O)[C@H](O)C3C)Oc3ccc(cc3Cl)C[C@H]3NC(=O)[C@@H](N)c5ccc(O)c(c5)Oc5cc(O)cc(c5)[C@H](NC3=O)C(=O)N[C@H]4C(=O)N[C@H]3C(=O)N[C@@H]2C(=O)N[C@@H](C(=O)O)c2cc(O)cc(O[C@H]4O[C@H](CO)[C@@H](O)C(O)[C@@H]4O)c2-c2cc3ccc2O)O[C@H](CO)[C@@H](O)[C@@H]1O (stereo partly specified)
Found: inactive

Lookup: State its Potency: `C=C1[C@@H]2CC[C@H](C2)C1(C)C`
Found: inactive

Lookup: Please give the documented Potency of CC(=O)OCC(=O)[C@@]1(O)CCC2C3CCC4=CC(=O)C=CC4(C)C3C(O)C[C@]21C (stereo partly specified)
Found: inactive
